assay: qHTS assay to identify small molecule agonists of the constitutive androstane receptor (CAR) signaling pathway - cell viability counter screen (AID 1224836); settings: HepG2-CYP2B6-hCAR viability, CellTiter-Fluor, 23 h, PK11195 added to every well; series mostly up to 92.4 µM; note: nearly all actives have a fitted effect of over 45% in size
Results filed as inconclusive are left out. Calls of active or inactive are those of the source. Calls come from the whole dose curve; as a rule, active = well fitted cell-killing curve with a large enough effect in the repeat runs; inconclusive = weak or mixed curves, or effect the other way; inactive = flat fitted curve, though single readings scatter.
Outcome field: choose from class 1 for active, class 0 for inactive

Examples from the recorded data:
CCCCC/C=C\C/C=C\C/C=C\C/C=C\CCCC(=O)NCC(=O)O :: class 0
C=CC(=O)[O][Sn]([CH2]CCC)([CH2]CCC)[CH2]CCC :: class 1
CCCCON=O :: class 0
O=C(N[C@@H]1N=C(c2ccccc2F)c2cccc3c2N(CC3)C1=O)c1cc2ccccc2[nH]1 :: class 0
[Cl-].[Cl-].[Cl-].[Yb+3] :: class 0

Query: For CC(O)C(=O)[O][Hg][c]1ccccc1 (configuration not stated) , which call appears in the assay record?
Reply: class 1

Query: What would you report for CC1CN1 (configuration not stated) ?
Reply: class 0

* * *

assay: A CellTox Green Cytotoxicity Assay to monitor cytotoxicity in HepG2 cells - 8 hour (AID 1224890); conditions: CellTox Green fluorescence; series mostly up to 76.8 µM; note: % is set by controls: 0 for no effect and ±100 for the full control effect; nearly all actives have a fitted effect of over 45% in size
Results filed as inconclusive are left out. Active and inactive are the calls of the source. The call rests on the fitted dose curve; in most records, active means well fitted activation curve with a large enough effect in the repeat runs; inconclusive means weak or mixed curves; inactive means flat fitted curve, though single readings scatter.
Outcome field: choose from active, inactive

Examples from the recorded data:
C=CCOC(=O)c1ccccc1N :: inactive
CC[C@]1(O)CC[C@H]2[C@@H]3CCC4=CCCC[C@@H]4[C@H]3CC[C@@]21C :: inactive
CNC(=O)/C=C(\C)OP(=O)(OC)OC :: inactive
CNC(=O)Oc1cc(C)cc(C(C)C)c1 :: inactive

Query: For CCCCN(CCCC)C(=S)[S-].CCCCN(CCCC)C(=S)[S-].[Ni+2] , which call appears in the assay record?
Reply: inactive

Query: What would you report for CC(C)=CC1C(C(=O)OC(C#N)c2cccc(Oc3ccccc3)c2)C1(C)C (stereo not given) ?
Reply: inactive

Query: What would you report for O=[N+]([O-])c1ccccc1-c1ccccc1 ?
Reply: inactive

Query: What would you report for CCCC[N+]1(C)CCCC1 (tested in a mixture with another compound) ?
Reply: inactive

Query: What would you report for ClC1=C(Cl)[C@]2(Cl)[C@@H]3[C@H]4C[C@H]([C@@H]5O[C@H]45)[C@@H]3[C@@]1(Cl)C2(Cl)Cl ?
Reply: inactive

* * *

test: qHTS assay to test for compound auto fluorescence at 460 nm (blue) in HEK293 cells (AID 720678); settings: blue autofluorescence 405/460 nm; series mostly up to 91.3 µM; note: % is set by controls: 0 for no effect and ±100 for the full control effect
Activity calls are given as the source filed them. The call rests on the fitted dose curve; in most records, active means well fitted curve in the direction sought with a large enough effect in the repeat runs; inconclusive means weak or mixed curves; inactive means flat fitted curve, though single readings scatter.
PROPERTY NAME: fluorescence, % of triamterene

Past entries and their recorded results:
CC(=O)[O-].CC(=O)[O-].[Co+2] :: inactive
CNC(C)(C)Cc1ccccc1 :: 0.0048% [at 18.6 µM] (inactive)
O.O.O.O=C([O-])[C@H]([O-])[C@@H]([O-])C(=O)[O-].O=C([O-])[C@H]([O-])[C@@H]([O-])C(=O)[O-].[K+].[K+].[Sb+3].[Sb+3] :: inactive
O=C(N[C@@H]1N=C(c2ccccc2F)c2cccc3c2N(CC3)C1=O)c1cc2ccccc2[nH]1 :: inactive
CC(=O)[O][Sn]([c]1ccccc1)([c]1ccccc1)[c]1ccccc1 :: inactive
O=C(NC(=O)c1c(F)cccc1F)Nc1ccc(Oc2ccc(C(F)(F)F)cc2Cl)cc1F :: inactive

Query: Requested read-out: fluorescence, % of triamterene. Entry: COC(=O)C(C)N(C(=O)c1ccco1)c1c(C)cccc1C (stereo unspecified)
Reply: inactive

Query: What would you report for COCCC#N ?
Reply: inactive
